Assignment: determine reported Concentration of FLNA-Binding Compound as Agonist 1 μM + BFNA for the given molecules.
# TARGET SYSTEM: mu opiate receptor (MOR) (Rattus norvegicus, UniProt P33535)
# Construct: from tissue; host or cells: striatum (membrane preparation)
# Sequence (P33535 whole entry): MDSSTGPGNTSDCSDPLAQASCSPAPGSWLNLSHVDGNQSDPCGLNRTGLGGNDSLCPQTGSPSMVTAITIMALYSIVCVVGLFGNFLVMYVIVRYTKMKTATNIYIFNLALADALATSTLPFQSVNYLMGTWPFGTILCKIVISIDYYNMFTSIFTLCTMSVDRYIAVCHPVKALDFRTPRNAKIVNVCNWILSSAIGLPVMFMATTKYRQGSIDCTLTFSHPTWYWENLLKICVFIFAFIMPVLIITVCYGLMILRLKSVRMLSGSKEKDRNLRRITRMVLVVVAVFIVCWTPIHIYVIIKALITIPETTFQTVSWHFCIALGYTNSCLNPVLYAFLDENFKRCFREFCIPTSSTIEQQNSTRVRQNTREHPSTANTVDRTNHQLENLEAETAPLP
# Format: biochemical
# RUN PARAMETERS: [35S]GTPγS binding to Gαo in striatal membranes; compound 1 μM plus 1 μM β-funaltrexamine (MOR antagonist)
# Protocol: To assess the mu opiate receptor (MOR) agonist activity of positive compounds from the FLNA screening, compounds were tested in a [^35S]GTPγS binding assay using striatal membranes. […] The immunocomplexes so formed were collected by incubation at 25° C. for 30 minutes with 40 μl of agarose-conjugated protein A/G beads and centrifugation at 5,000×g at 4° C. for 5 minutes. […] The radioactivity in the suspension was determined by liquid scintillation spectrometry.
Express it in %; write the number only.

input: Any idea what Concentration of FLNA-Binding Compound as Agonist 1 μM + BFNA was measured for COc1ccccc1CC(O)CC1c2c(cc3c(c2OC)OCO3)CCN1C (centres unmarked) [Compound B0030] ?
output: 90.1

input: Any idea what Concentration of FLNA-Binding Compound as Agonist 1 μM + BFNA was measured for O=C1CN(Cc2ccccc2)C2(CCN(S(=O)(=O)c3cc(Cl)c(O)c(Cl)c3)CC2)N1 [Compound C0139M] ?
output: 51.0

input: Any idea what Concentration of FLNA-Binding Compound as Agonist 1 μM + BFNA was measured for CC1CCC(C(C)C)C(OCC(O)CN2CCSC2)C1 (centres unmarked) [Compound A0002] ?
output: 6.5

input: Any idea what Concentration of FLNA-Binding Compound as Agonist 1 μM + BFNA was measured for CC1CN(CC(O)COc2ccccc2Br)CC(C)O1 (centres unmarked) [Compound A0043] ?
output: 89.1

input: Any idea what Concentration of FLNA-Binding Compound as Agonist 1 μM + BFNA was measured for Cc1ccc(S(=O)(=O)N2CCC3(CC2)OCCN3S(=O)(=O)c2ccc(C)cc2)cc1 [Compound C0001] ?
output: 33.9

input: Any idea what Concentration of FLNA-Binding Compound as Agonist 1 μM + BFNA was measured for COc1cc(F)ccc1C(=O)CC1c2c(cc3c(c2OC)OCO3)CC[N+]1(C)C (centres unmarked) [Compound B0007] ?
output: 64.5

input: Any idea what Concentration of FLNA-Binding Compound as Agonist 1 μM + BFNA was measured for CN(C)c1cccc(OCC(O)CN2CCc3ccccc3C2)c1 (centres unmarked) [Compound A0050] ?
output: 81.0

input: Any idea what Concentration of FLNA-Binding Compound as Agonist 1 μM + BFNA was measured for CC(=O)Nc1ccc(S(=O)(=O)N2CCC3(CC2)OCCN3S(=O)(=O)c2ccc(NC(C)=O)cc2)cc1 [Compound C0013] ?
output: 39.6

---

# TARGET SYSTEM: mu opiate receptor (MOR) (Rattus norvegicus, UniProt P33535)
# Construct: from tissue; host or cells: striatum (membrane preparation)
# Format: biochemical
QUANTITY NAME: % DAMGO (0.1 μM) (%)
Express it in %; write the number only.

input: Any idea what % DAMGO (0.1 μM) was measured for CC1CCC(C(C)C)C(OCC(O)CN2CCC(=O)C(C)C2)C1 (stereo not drawn) [Compound A0056] ?
output: 74.1

input: Any idea what % DAMGO (0.1 μM) was measured for O=S(=O)(c1ccc(Br)cc1F)N1CCC2(CC1)OCCN2S(=O)(=O)c1ccc(Br)cc1F [Compound C0078] ?
output: 82.4

input: Any idea what % DAMGO (0.1 μM) was measured for COc1c2c(cc3c1C(CC(=O)CCc1ccc(F)cc1)[N+](C)(C)CC3)OCO2 (stereo not drawn) [Compound B0018] ?
output: 70.3

input: Any idea what % DAMGO (0.1 μM) was measured for COc1ccc(S(=O)(=O)N2CCSC23CCNCC3)cc1 [S-C0027] ?
output: 74.2

input: Any idea what % DAMGO (0.1 μM) was measured for OC(COc1cccc(C(F)(F)F)c1)CN1CCc2ccccc2C1 (stereo not drawn) [Compound A0054] ?
output: 44.4

input: Any idea what % DAMGO (0.1 μM) was measured for O=C1CN(Cc2ccccc2)C2(CCNCC2)N1 [Compound C0115M] ?
output: 105.7

input: Any idea what % DAMGO (0.1 μM) was measured for CCOC(=O)CN1CCC2(CC1)OCCN2S(=O)(=O)c1ccc(C(C)=O)cc1 [Compound C0099M] ?
output: 93.8

input: Any idea what % DAMGO (0.1 μM) was measured for Cc1cccc(S(=O)(=O)N2CCC3(CC2)OCCN3S(=O)(=O)c2cccc(C)c2)c1 [Compound C0014] ?
output: 82.0

input: Any idea what % DAMGO (0.1 μM) was measured for Cc1ccc(C(C)C)c(OCC(O)CN2CC(C)OC(C)C2)c1 (stereo not drawn) [Compound A0028] ?
output: 81.3
